// reported protein stability index per item
B1: ADAMTS4 (parent)
chain: SFRKFRYGYNNVVTIPAGATHILV

Variants of: B1
assay_name: protein stability index of a GFP-peptide fusion (GPS, HEK-293T) (PSI 1-6); higher = more stable;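 further: lentivirally expressed fusions sorted by FACS into six bins by GFP to DsRed ratio, PSI derived from sequencing read proportions per bin multiplied by bin number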
conditions: c terminus: a fixed tail appended
readout_name: protein stability index

- SFRKFRYGYNDVVTIPAGATHILV [N11D]: 2.92
- SFRKFRYGYNNVLTIPAGATHILV [V13L]: 3.1
- SFRGFRYGYNNVVTIPAGATHILV [K4G]: 2.05
- SFRKFRYGYNNVVTIPAKATHILV [G18K]: 2.41
- SFRKFRYGYNNVVTIRAGATHILV [P16R]: 1.76
- SFRKFRYGYNNMVTIPAGATHILV [V12M]: 2.29
- SFRKFRYGYHNVVTIPAGATHILV [N10H]: 1.84
- SFRKFRTGYNNVVTIPAGATHILV [Y7T]: 3.1
